Tested on: HEL
Assay: Cytotoxicity against HEL
Format: cell-based
Details: human
QUANTITY KIND: CC50

// known answers, use as guide
SMILES INPUT	TARGET UNDER TEST	CC50
Cc1ccccc1OCCCCCn1ccc(=O)[nH]c1=O	HEL	> 100 µM
CCCOC(=O)c1ccc(OCCCCCn2ccc(=O)[nH]c2=O)cc1	HEL	> 100 µM
Nc1ccn(C[C@@H](CO)OCP(=O)(O)O)c(=O)n1	HEL	161 µM
Cc1cn(CCCCCOc2ccc(Br)cc2)c(=O)[nH]c1=O	HEL	> 100 µM

Answer with the recorded CC50 for the compound listed here: CC(C)(C)c1ccc(OCCCCCn2ccc(=O)[nH]c2=O)cc1
40 µM
